Tested Target: T1, Histidine-tagged human PD-1 protein (hPD-1-His) (human, UniProt Q15116 25-170, limits assumed)
T1 construct: Soluble analyte in SPR; not shown: histidine tag
T1 sequence (Q15116 25-170 limits assumed): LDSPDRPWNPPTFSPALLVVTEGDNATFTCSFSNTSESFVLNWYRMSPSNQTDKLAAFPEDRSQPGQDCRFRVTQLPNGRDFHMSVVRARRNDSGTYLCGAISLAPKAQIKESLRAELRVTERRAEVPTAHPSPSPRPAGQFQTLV
Assay Comment: SPR (Biacore T200), antibody captured on Protein A chip, hPD-1-His analyte, 1:1 fit
Measured Quantity: koff (s⁻¹)
Please give a number only; it is taken to be in s⁻¹.

Some binders with recorded koff:
binder="1A7-H3K2-IgG4-S228P (antibody, V domains shown, Humanized; human IgG4 constant domains with S228P (EU numbering)) VH: EVKLVESGGGLVQPGGSLRLSCAASGFTFSSYSMSWVRQAPGKRLEWVAHISSGGSSTYYPDTVKGRFTISRDNSKNTLYLQMNSLRAEDTAMYYCTRQFYYGSSFWYFDVWGAGTTVTVSS VL: DNVLTQSPATLSVSPGERATLSCKASQSVDFDGDSYMNWYQQKPGQPPRLLIYAASNLESGIPARFSGSGPGTDFTLTISSLEPEDFATYYCQQSNEDPPTFGGGTKVEIK" quantitative_result=0.0028
binder="1A7-H1K3-IgG4-S228P (antibody, V domains shown, Humanized; human IgG4 constant domains with S228P (EU numbering)) VH: EVQLLESGGGLVQPGGSLRLSCAASGFTFSSYSMSWVRQAPGKRLEWVAHISSGGSSTYYPDTVKGRFTISRDNSKNTLYLQMNSLRAEDTAMYYCTRQFYYGSSFWYFDVWGQGTTVTVSS VL: DNVLTQSPATLSVSPGERATLSCKASQSVDFDGDSYMNWYQQKPGQPPRLLIYAASNLESGIPARFSGSGSGTDFTLTISSVEPEDFATYYCQQSNEDPPTFGGGTKVEIK" quantitative_result=0.00119

Data request: I am curious: what koff value has been reported for 1A7-H2K3-IgG4-S228P (antibody, V domains shown, Humanized; human IgG4 constant domains with S228P (EU numbering)) VH: EVQLVESGGGLVQPGGSLRLSCAASGFTFSSYSMSWVRQAPGKRLEWVAHISSGGSSTYYPDTVKGRFTISRDNSKNTLYLQMNSLRAEDTAMYYCTRQFYYGSSFWYFDVWGAGTTVTVSS VL: DNVLTQSPATLSVSPGERATLSCKASQSVDFDGDSYMNWYQQKPGQPPRLLIYAASNLESGIPARFSGSGSGTDFTLTISSVEPEDFATYYCQQSNEDPPTFGGGTKVEIK ?
Data returned: 0.00136

Data request: I am curious: what koff value has been reported for 1A7-H3K3-IgG4-S228P (antibody, V domains shown, Humanized; human IgG4 constant domains with S228P (EU numbering)) VH: EVKLVESGGGLVQPGGSLRLSCAASGFTFSSYSMSWVRQAPGKRLEWVAHISSGGSSTYYPDTVKGRFTISRDNSKNTLYLQMNSLRAEDTAMYYCTRQFYYGSSFWYFDVWGAGTTVTVSS VL: DNVLTQSPATLSVSPGERATLSCKASQSVDFDGDSYMNWYQQKPGQPPRLLIYAASNLESGIPARFSGSGSGTDFTLTISSVEPEDFATYYCQQSNEDPPTFGGGTKVEIK ?
Data returned: 0.00132

Data request: I am curious: what koff value has been reported for 3F1-H1K1-IgG4-S228P (antibody, V domains shown, Humanized; human IgG4 constant domains with S228P (EU numbering)) VH: QVQLQQSGAEVKKPGASVKMSCKASGYTFTSYWMHWVRQAPGQGLEWIGYINPSTGYTEYNQKFKDRATLTADTSTSTAYMELSSLRSEDTAVYYCARGVRYYFDYWGQGTLVTVSS VL: DIVMTQSPDSLAVSLGERATISCKSSQSLLNSRTRKNYLAWYQQKPGQSPKLLIYWASTRESGVPDRFSGSGSGTDFTLTISSVQAEDVAVYYCKQSYNLLTFGQGTKLELK ?
Data returned: 0.00181
